# System: SF-295 CNS
# TEST: NCI-60 one-dose screen, 48 h
# CONDITION_LABEL: 10 µM unless noted
About 83,000 compounds went through this panel and 20% of them were active in at least one assay; those are over-represented in the sample as a whole. Calls of active or inactive are those of the source. Rule for the calls: active = growth percent below 10; inactive = the rest.
The categories you may choose from are 1 (yes) (active), 0 (no) (inactive)

| COMPOUND | CLASS_LABEL |
| --- | --- |
| O=C(NC(Cc1nnc2n(Cc3ccccc3)c(=O)c3c4c(sc3n12)CCCC4)c1ccccc1)c1ccccc1 (configuration not stated) | 0 (no) |
| O=C(CCCCCNC(=O)c1cc(=O)c(O)co1)Nc1ccccc1 | 0 (no) |
| CC1(C)[C@@H](O[C@@H]2OC[C@@H](O[C@@H]3O[C@H](CO)[C@@H](O)[C@H](O)[C@H]3O[C@@H]3OC[C@@H](O)[C@H](O)[C@H]3O)[C@H](O)[C@H]2O[C@@H]2O[C@H](CO)[C@@H](O)[C@H](O)[C@H]2O)CC[C@]2(C)[C@H]3CC[C@]45OC[C@@]6(CC[C@](C)(C=O)C[C@H]64)[C@H](O)C[C@@]5(C)[C@]3(C)CC[C@@H]12 | 1 (yes) |

Switching to the query record.
GET /call?item= Cc1ccc(-c2nc(N3CCNCC3)c3oc(-c4ccc(C)cc4)nc3n2)cc1 returns the recorded outcome of this test.
0 (no)

# credit: PubChem BioAssay (NCI)
